Below: a set of entries, each annotated with reported log10(MIC).
# Test system: C. parapsilosis 2372E
# test name: in vitro antifungal screen, MIC by two-fold serial dilution
# Format: cell-based, Candida parapsilosis
result type: log10(MIC) (log10 of the value in µg/mL)

molecule=C=C(C)CN1C[C@H](OC[C@@]23C[C@@H]4[C@H](C)CC[C@H]4[C@@]4(C=O)C[C@@H]2C=C(C(C)C)[C@@]34C(=O)O)O[C@H](C)C1 assayed_system="C. parapsilosis 2372E" readout_value=0.00
molecule="C=C(Br)CN1CC(C)OC(OCC23CC4C(C)CCC4C4(C=O)CC2C=C(C(C)C)C43C(=O)O)C1 (stereo not drawn)" assayed_system="C. parapsilosis 2372E" readout_value=0.60
molecule="C#CCN1CC(C)OC(OCC23CC4C(C)CCC4C4(C=O)CC2C=C(C(C)C)C43C(=O)O)C1 (stereo not drawn)" assayed_system="C. parapsilosis 2372E" readout_value=1.20
molecule="COc1ccc(CN2CC(C)OC(OCC34CC5C(C)CCC5C5(C=O)CC3C=C(C(C)C)C54C(=O)O)C2)cc1 (stereo not drawn)" assayed_system="C. parapsilosis 2372E" readout_value=0.30
molecule="CC1CN(CC=C(F)F)CC(OCC23CC4C(C)CCC4C4(C=O)CC2C=C(C(C)C)C43C(=O)O)O1 (stereo not drawn)" assayed_system="C. parapsilosis 2372E" readout_value=1.20
molecule="C=C=CCN1CC(C)OC(OCC23CC4C(C)CCC4C4(C=O)CC2C=C(C(C)C)C43C(=O)O)C1 (stereo not drawn)" assayed_system="C. parapsilosis 2372E" readout_value=0.90
molecule="C=C(Cl)CN1CC(C)OC(OCC23CC4C(C)CCC4C4(C=O)CC2C=C(C(C)C)C43C(=O)O)C1 (stereo not drawn)" assayed_system="C. parapsilosis 2372E" readout_value=0.00

----------
# System: C. pseudotropicalis 2371E
# test name: in vitro antifungal screen, MIC by two-fold serial dilution
# Format: cell-based, Candida pseudotropicalis
result type: MIC

compound="CC1CN(CC=C(F)F)CC(OCC23CC4C(C)CCC4C4(C=O)CC2C=C(C(C)C)C43C(=O)O)O1 (stereo not drawn) [Example 10]" readout_value="0.03 µg/mL"
compound="C=C(Cl)CN1CC(C)OC(OCC23CC4C(C)CCC4C4(C=O)CC2C=C(C(C)C)C43C(=O)O)C1 (stereo not drawn) [Example 8]" readout_value="≦0.001 μg/ml"
compound="C=C(C)CN1C[C@H](OC[C@@]23C[C@@H]4[C@H](C)CC[C@H]4[C@@]4(C=O)C[C@@H]2C=C(C(C)C)[C@@]34C(=O)O)O[C@H](C)C1 [Example 12]" readout_value="≦0.001 μg/ml"
compound="C=C(Br)CN1CC(C)OC(OCC23CC4C(C)CCC4C4(C=O)CC2C=C(C(C)C)C43C(=O)O)C1 (stereo not drawn) [Example 7]" readout_value="≦0.001 μg/ml"
compound="C=CCN1C[C@H](OC[C@@]23C[C@@H]4[C@H](C)CC[C@H]4[C@@]4(C#N)C[C@@H]2C=C(C(C)C)[C@@]34C(=O)O)O[C@H](C)C1 [Example 25]" readout_value="0.12 µg/mL"
compound="C=C=CCN1CC(C)OC(OCC23CC4C(C)CCC4C4(C=O)CC2C=C(C(C)C)C43C(=O)O)C1 (stereo not drawn) [Example 14]" readout_value="≦0.001 μg/ml"
